Source of measurements: the supplement of paper PMC12494721

Test system: Escherichia coli IAI1
Test: growth (OD595) fold change vs plate DMSO controls (fold change (ratio)); higher = more growth
Details: incubation time: 27 h, anaerobic, 37 °C
Structures can show the parent of a compound that is named as a salt.
Below, each entry is listed alongside its reported growth.
Lab note: record the figure alone, no unit after it.

Completed entries (count: 8):
{"columns": ["COMPOUND", "growth"],
 "data": [
  ["CCCCOCCOCCOCc1cc2c(cc1CCC)OCO2 (20 µM)", 1.02],
  ["C[C@H]1C[C@H]2[C@@H]3CCC4=CC(=O)C=C[C@]4(C)[C@@]3(F)[C@@H](O)C[C@]2(C)[C@@]1(O)C(=O)CO [Betamethasone] (20 µM)", 1.02],
  ["CO[C@H]1/C=C/O[C@@]2(C)Oc3c(C)c(O)c4c(O)c(c5c(nc6cc(C)ccn65)c4c3C2=O)NC(=O)/C(C)=C\\C=C\\[C@H](C)[C@H](O)[C@@H](C)[C@@H](O)[C@@H](C)[C@H](OC(C)=O)[C@@H]1C [Rifaximin] (20 µM)", 0.438],
  ["CCOC(=O)[C@H](CCc1ccccc1)N[C@@H](C)C(=O)N1[C@H](C(=O)O)C[C@@H]2CCC[C@@H]21 [Ramipril] (20 µM)", 0.984],
  ["CCOC(=O)[C@H](CCc1ccccc1)N[C@@H](C)C(=O)N(CC(=O)O)C1Cc2ccccc2C1 [Delapril Hydrochloride] (20 µM)", 0.976],
  ["CCOC(=O)OC(C)OC1=C(C(=O)Nc2ccccn2)N(C)S(=O)(=O)c2ccccc21 (centres undefined) [Ampiroxicam] (20 µM)", 0.978],
  ["CC(=O)N[C@@H](CC(C)C)C(=O)O [N-Acetyl-L-leucine] (20 µM)", 0.831],
  ["CCOC(=O)n1ccn(C)c1=S [Carbimazole] (20 µM)", 1.11]
]}

QUERY: For the record O=C(O)c1cc(/N=N/c2ccc(S(=O)(=O)Nc3ccccn3)cc2)ccc1O [Sulfasalazine] (20 µM) , what value of growth is listed for Escherichia coli IAI1?
RESULT: 1

QUERY: For the record COc1ccc2[nH]c([S+]([O-])Cc3ncc(C)c(OC)c3C)nc2n1 (centres undefined) [Tenatoprazole] (20 µM) , what value of growth is listed for Escherichia coli IAI1?
RESULT: 1.06

QUERY: For the record N[C@@H](CCC(=O)N[C@@H](CS)C(=O)NCC(=O)O)C(=O)O [Glutathione] (20 µM) , what value of growth is listed for Escherichia coli IAI1?
RESULT: 1.04

###

System: Escherichia coli IAI1
Test: growth (OD595) fold change vs plate DMSO controls (fold change (ratio)); higher = more growth
Conditions: incubation time: 27 h, anaerobic, 37 °C
Structures can show the parent of a compound that is named as a salt.
Below, each entry is listed alongside its reported growth.
Lab note: record the figure alone, no unit after it.

Completed entries (count: 5):
{"columns": ["COMPOUND", "growth"],
 "data": [
  ["CN(C)[C@@H]1C(=O)C(C(N)=O)=C(O)[C@@]2(O)C(=O)C3=C(O)c4c(O)ccc(Cl)c4[C@@H](O)[C@H]3C[C@@H]12 [Demeclocycline hydrochloride] (20 µM)", 0.0384],
  ["CC(=O)N1CCN(c2ccc(OCC3COC(Cn4ccnc4)(c4ccc(Cl)cc4Cl)O3)cc2)CC1 (stereo not given) [Ketoconazole] (20 µM)", 0.988],
  ["CC(C)c1nc(N(C)S(C)(=O)=O)nc(-c2ccc(F)cc2)c1/C=C/[C@@H](O)C[C@@H](O)CC(=O)O [Rosuvastatin] (20 µM)", 1.22],
  ["CN1CCN(C(c2ccccc2)c2ccc(Cl)cc2)CC1 (stereo not given) [Chlorcyclizine hydrochloride] (20 µM)", 1.16],
  ["CC(N)C12CC3CC(CC(C3)C1)C2 (stereo not given) [Rimantadine hydrochloride] (20 µM)", 0.975]
]}

QUERY: Given COc1ccnc(C[S+]([O-])c2nc3cc(OC(F)F)ccc3[nH]2)c1OC (stereo not given) [Pantoprazole sodium] (20 µM) , state its recorded growth.
RESULT: 1.22

QUERY: Given O=C(c1ccc(F)cc1)C1CCN(CCn2c(=O)[nH]c3ccccc3c2=O)CC1 [Ketanserin tartrate hydrate] (20 µM) , state its recorded growth.
RESULT: 0.974

QUERY: Given Cc1cc2c(s1)Nc1ccccc1N=C2N1CCN(C)CC1 [Olanzapine] (20 µM) , state its recorded growth.
RESULT: 1.13

QUERY: Given CO[C@@]1(NC(=O)Cc2cccs2)C(=O)N2C(C(=O)O)=C(COC(N)=O)CS[C@@H]21 [Cefoxitin sodium salt] (20 µM) , state its recorded growth.
RESULT: 0.00646

QUERY: Given CC(=O)[C@H]1CC[C@H]2[C@@H]3C[C@H](C)C4=CC(=O)CC[C@]4(C)[C@H]3[C@@H](O)C[C@]12C [Medrysone] (20 µM) , state its recorded growth.
RESULT: 1.03

###

System: Clostridium sporogenes DSM 1664
Assay: fold change of Tryptamine concentration vs plate DMSO controls (fold change (ratio)); higher = more amine produced, active = hit call of the paper (significant change in both replicates, either direction)
Conditions: incubation time: 27 h, anaerobic, 37 °C
Structures can show the parent of a compound that is named as a salt.
Below, each entry is listed alongside its reported fold change of Tryptamine concentration.
Lab note: record the figure alone, no unit after it.

Completed entries (count: 3):
{"columns": ["MOLECULE", "TARGET OR TEST SYSTEM", "READOUT NAME", "REPORTED"],
 "data": [
  ["CC[C@H]1OC(=O)[C@H](C)[C@@H](O[C@H]2C[C@@](C)(OC)[C@@H](O)[C@H](C)O2)[C@H](C)[C@@H](O[C@@H]2O[C@H](C)C[C@H](N(C)C)[C@H]2O)[C@](C)(OC)C[C@@H](C)C(=O)[C@H](C)[C@@H](O)[C@]1(C)O [Clarithromycin] (20 µM)", "Clostridium sporogenes DSM 1664", "fold change of Tryptamine concentration", 0.0515],
  ["CCc1oc2ccccc2c1C(=O)c1cc(Br)c(O)c(Br)c1 [Benzbromarone] (20 µM)", "Clostridium sporogenes DSM 1664", "fold change of Tryptamine concentration", 0.706],
  ["CCc1nc(N)nc(N)c1-c1ccc(Cl)cc1 [Pyrimethamine] (20 µM)", "Clostridium sporogenes DSM 1664", "fold change of Tryptamine concentration", 1.01]
]}

QUERY: Given Cc1ccsc1C(=CCCN1CCC[C@@H](C(=O)O)C1)c1sccc1C [Tiagabine hydrochloride] (20 µM) , state its recorded fold change of Tryptamine concentration.
RESULT: 0.999

###

Below, each entry is listed alongside its reported fold change of 2-Phenylethylamine concentration.
Tested on: Ruminococcus gnavus DSM 108212
Test: fold change of 2-Phenylethylamine concentration vs plate DMSO controls (fold change (ratio)); higher = more amine produced, active = hit call of the paper (significant change in both replicates, either direction)
Conditions: incubation time: 27 h, anaerobic, 37 °C
Where a name gives a salt, the structure may show the parent alone.

Completed entries (count: 5):
{"columns": ["COMPOUND", "REPORTED"],
 "data": [
  ["CC(Oc1c(Cl)cccc1Cl)C1=NCCN1 (stereo not given) [Lofexidine] (20 µM)", "1.01 (inactive)"],
  ["C[C@@H]1C[C@H]2[C@@H]3C[C@H](F)C4=CC(=O)C=C[C@]4(C)[C@@]3(F)[C@@H](O)C[C@]2(C)[C@@]1(O)C(=O)COC(=O)C(C)(C)C [Flumethasone pivalate] (20 µM)", "1.05 (inactive)"],
  ["CCn1cc(C(=O)O)c(=O)c2ccc(C)nc21 [Nalidixic acid sodium salt] (20 µM)", "1.07 (inactive)"],
  ["CN(C)C/C=C(/c1ccc(Br)cc1)c1cccnc1 [Zimelidine dihydrochloride monohydrate] (20 µM)", "1.04 (inactive)"],
  ["Nc1ccc2cc3ccc(N)cc3nc2c1 [Proflavine hemisulfate] (20 µM)", "0.861 (inactive)"]
]}

QUERY: For the record CN(C)C(=O)COC(=O)Cc1ccc(OC(=O)c2ccc(NC(=N)N)cc2)cc1 [Camostat mesylate] (20 µM) , what value of fold change of 2-Phenylethylamine concentration is listed for Ruminococcus gnavus DSM 108212?
RESULT: 0.999 (inactive)

QUERY: For the record COc1ccc2c3c1O[C@H]1C[C@@H](O)C=C[C@@]31CCN(C)C2 [Galanthamine hydrobromide] (20 µM) , what value of fold change of 2-Phenylethylamine concentration is listed for Ruminococcus gnavus DSM 108212?
RESULT: 1 (inactive)

QUERY: For the record Cc1c(NC(=O)c2cccnc2)c(=O)n(-c2ccccc2)n1C [Nifenazone] (20 µM) , what value of fold change of 2-Phenylethylamine concentration is listed for Ruminococcus gnavus DSM 108212?
RESULT: 1.03 (inactive)

QUERY: For the record O=C(O)Cc1csc(-c2ccc(Cl)cc2)n1 [Fenclozic acid] (20 µM) , what value of fold change of 2-Phenylethylamine concentration is listed for Ruminococcus gnavus DSM 108212?
RESULT: 1.1 (inactive)

QUERY: For the record CN1CCN(C2=Nc3cc(Cl)ccc3Nc3ccccc32)CC1 [Clozapine] (20 µM) , what value of fold change of 2-Phenylethylamine concentration is listed for Ruminococcus gnavus DSM 108212?
RESULT: 0.92 (inactive)
